- System: MS2 coat protein
- experiment-description: apparent KD of MS2 coat protein; designed switch direction (-1 OFF switch, 1 ON switch): -1; higher = weaker reporter binding
- test-settings: input ligand: FMN 200 uM
Some sequences, each annotated with its measured apparent KD of MS2 coat protein.
Number only, in nM; omit the unit.

GCCCGGCGUGUAGGAUAUGGUUCCGUUUCGGUUCCAGAAGGACAUGAGGAUCACCCAUGUGCCUGUCGUCGGUCGUCACCGGGC [salish99_ExNG1_r04_401] (Eterna round: R96, puzzle: Exclusion NG 1)	11.1
CCGCUCCGUGUAGGAUAUUGGCGUGCCCUGCGCCGAGAAGGACAUGAGGAUCACCCAUGUAUGUUAUUAUCACGCGUGGCGCAC [Design 76] (Eterna round: R96, puzzle: Exclusion NG 1)	15.9

Consider the additional sequence presented here.
Fill in: apparent KD of MS2 coat protein on MS2 coat protein, entry AUAUAGCGAGGAUAUACAUGAGGAUCACCCAUGUGGUAGUAGAUACGGUAGGGCUAGUGUAGAAGGUGCUAUGA [EX3 #12] (Eterna round: R97, puzzle: Exclusion 3)
450

----------
- Tested on: MS2 coat protein
- experiment-description: apparent KD of MS2 coat protein; higher = weaker reporter binding
- test-settings: Eterna round: R107; input ligand: theophylline 20 uM
Some sequences, each annotated with its measured apparent KD of MS2 coat protein.
Number only, in nM; omit the unit.

CCGGGCUGUGGAGACAUAGCCCGGACUGAAGGAGCGGGAAUAAACCCAGGUAGGUCGCAGAGAUCCACAUGAGGAUCACCCAUGU [!0.S]	40.9
GCUGUAAGUGCAGAUACCAGCGUGUUAUAUUUCUAAUGACAUGAGGAUCACCCAUGUAAAUGCCCUUGGCAGCUGCACUUACAGC [SSTHB #7]	16.7
AGAUUACAUGUUUUAAUAAGAUAAACUGAUACCAGUGUAUAUAUUCACCCUUGGCAGCAGCAACAUGAGGAUCACCCAUGUAUUA [JR_SSTheophyA_Sub015]	18.7
AAUCGGACUCGUACAGCAUGUUGAGCGGAAGGAGCGGCGAAAGAGCCAGGUAGGUCGCCGCCGACAUGAGGAUCACCCAUGUACG [Orenti]	177
AAAUUAUAGGCGGCCGCCACUAGAGUUAGGCUUAUGUACUGGGUAACAUGAGGAUCACCCAUGUAUAGGACCGGGCCAUAAUAAA [Same State - Tryptophan B (Freestyle 3)]	76.2

Consider the additional sequence presented here.
Name the recorded apparent KD of MS2 coat protein of the item ACAUGAGGAUCACCCAUGUAUUCAUCAGAAGGAGCGUGGAAUAACACAGGUAGGUCGCUGAUUAUUUGUUAAAUAAAAUCGUGUA [JR_Nu_SSArginiA_Sub022] in your answer.
20.6

----------
Some sequences, each annotated with its measured apparent KD of MS2 coat protein.
- Tested on: MS2 coat protein
- experiment-description: apparent KD of MS2 coat protein; designed switch direction (-1 OFF switch, 1 ON switch): -1; higher = weaker reporter binding
- test-settings: input ligand: none
Kindly write the number and append the unit.

Consider the worked cases shown below.
AGGACAUGAGGAUCACCCAUGUAGUGAGGUGUAUCCGAAGACGAGGAUAUACAGAGGAAAUAUCUGUAGAAGGUGUAAUAAAAU [Istediso] (Eterna round: R96, puzzle: Exclusion NG 3)	299 nM
AAGUUGAAAGUCAGGAUAUCCAGACAAAAGUCAACGGAGAAGGGACUUGAGGAUCACCCAAGUGACCCUAAAUG [Usraleribe] (Eterna round: R97, puzzle: Brourd's mod of Exclusion 4)	14.8 nM
AGCUUUUUGUUUUUGGGUGACAUGAGGAUCACCCAUGUCUUAUGGGCCCAAUAAUAAUAAAAUAAAAGGGACCCACG [-20.8, -41.27, a 31%] (Eterna round: R97, puzzle: Sensor, turn-off variant 1)	208 nM

Fill in: apparent KD of MS2 coat protein on MS2 coat protein, entry GCCAUGGGAGGAUAUACGUCAUAGGUUACCUCACGCUGGCGACAUGAGGAUCACCCAUGUAGAAGGCUCAGAUG [Eternabot (L2) Solution 12] (Eterna round: R97, puzzle: Exclusion 2)
113 nM

Fill in: apparent KD of MS2 coat protein on MS2 coat protein, entry UCAGGUGCAGGAUAUACAUGAGGAUCACCCAUGUGGUCACGUGACGAUAGUCACGAAUGUAGAAGGGCACCUGA [E3/3-D1] (Eterna round: R97, puzzle: Exclusion 3)
958 nM

----------
- Test system: MS2 coat protein
- experiment-description: apparent KD of MS2 coat protein; designed switch direction (-1 OFF switch, 1 ON switch): 1; higher = weaker reporter binding
- test-settings: input ligand: microRNA oligo, concentration not stated
Some sequences, each annotated with its measured apparent KD of MS2 coat protein.
Number only, in µM; omit the unit.

Name the recorded apparent KD of MS2 coat protein of the item GGUCGAAACCACAUGAGGAUCACCCAUGUUCCGGAAACGGCGCAGGAUAUCUGUCCGAAAAGGUCAGAGAAGGGUGAAACGACC [Fiskers NG3ss - 79] (Eterna round: R96, puzzle: Same State NG 3) in your answer.
0.699

Name the recorded apparent KD of MS2 coat protein of the item UACAAUCUAUCUGAGGAUAUCAUGAAAAAAACAUGAGGAUCACCCAUGUGCAGGAAAACUGCAUAUGAGAAGGCAGAUAGAUUGC [salish99_SS2_r3_008] (Eterna round: R96, puzzle: Same State 2) in your answer.
0.458

Name the recorded apparent KD of MS2 coat protein of the item GUGCUCGUGUGAGGAUAUGCUUCCGUUUCGGCUGCAGAAGGUACUAUUAUACAUGAGGAUCACCCAUGUCUCUUUUCUCCGGUG [salish99_SSNG1_r04_913] (Eterna round: R96, puzzle: Same State NG 1) in your answer.
0.0274

Name the recorded apparent KD of MS2 coat protein of the item GUCCGUACCACAGGAUAUCCUAGUCAUGAUCUAGGAGAAGGGUGGCCACAUGAGGAUCACCCAUGUGAAGUGCCAGAGGCACGA [MOD Xexeraed] (Eterna round: R96, puzzle: Same State NG 1) in your answer.
0.046

Name the recorded apparent KD of MS2 coat protein of the item GUACAAAUCAUAGGAUAUGGGCGGGAAUGCCGUCCAGAAGGAUGAACAUGAGGAUCACCCAUGUCCGGCCACAAAUACGCGGCC [Bientela] (Eterna round: R96, puzzle: Same State NG 1) in your answer.
0.104

----------
Some sequences, each annotated with its measured apparent KD of MS2 coat protein.
- System: MS2 coat protein
- experiment-description: apparent KD of MS2 coat protein; designed switch direction (-1 OFF switch, 1 ON switch): -1; higher = weaker reporter binding
- test-settings: Eterna round: R95; input ligand: none
Number only, in nM; omit the unit.

Consider the worked cases shown below.
CAUACUGAAGUUAGGAUAUGCGGCCGAAUACGGGUGUAGAAGGGACAUGAGGAUCACCCAUGUAGAUAGUAAAG [EX-4 Malc #16] (puzzle: Brourd's mod of Exclusion 4)	20.1
AAAUACAAGUAGAGAUUCUACAUGAGGAUCACCCAUGUGCUCGUCUUAUAAAGUACUAUCACGAAAGUGAUAGUACA [Sensor 3, v1 - 37] (puzzle: Sensor v3, turn-off variant 1)	14.1

Consider the additional sequence presented here.
Name the recorded apparent KD of MS2 coat protein of the item AGUUGGCGAGGAUAUACAUGAGGAUCACCCAUGUGAGAGAAAAAAGUGAGGAAGAAAAGUAGAAGGCGCUGACA [salish99_ex3_r3_038] (puzzle: Exclusion 3) in your answer.
77.3

----------
- Test system: K4 kissing-loop RNA reporter;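 also: bound reporter read as fluorescence of individual clusters on recovered sequencing chips by microscopy, with normalized cluster intensities fitted with a binding model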
- experiment-description: apparent KD of K4 kissing-loop reporter; higher = weaker reporter binding
- test-settings: Eterna round: R107; input ligand: theophylline 20 uM
readout-name: apparent KD of K4 kissing-loop reporter (nM)
Number only, in nM; omit the unit.

Consider the worked cases shown below.
UGCAGUGAUGUUGCUAUUUGUCUUGAUUAACGAGGACCGGUACGGCCGCCACUCGAUUUCUCUCUAAUCGAGUAUGUUGUUUAGU [#19 K4 Tryptophan A Exclusion]	203
UUUAUAAUGUCGGCCGCCACUGGAUUAAUAUUUGUAUAAUCUAGUUCUAAGUGAUGUUUAGAGUCCAGGACCGGGACAUUUGUUA [#09 K4 Tryptophan B Exclusion]	311
GAAGGUCAAAGACCUUCGUGCACACCUGAUACCAGUCGCGAAAGCGACCCUUGGCAGCAGGGCAGUGAUGUUGCCAGUGCACAAA [Omei KL Theo A SS A v5]	164
UAGCGGGCGAUUCGACGUGCGUCCAGUCAUCGAGGACCGGUACGGCCGCCACUCGCCGGAGUGAUGUUCCGGUACGUCAUAUAAU [theeternabot_sameState_KL_Trp_A_35]	422
UAUAAUUCGGCGGCCGCCACUGACCAUAGCCUUCGAUGGCCAGUGAUGUUGGCCUCUGGCUCUAACAGGACCGGGCCGAAUUGCG [Aririmaus]	277

Fill in: apparent KD of K4 kissing-loop reporter on K4 kissing-loop RNA reporter, entry UGAUAGGAGAGAAGGAGCGGGAGUGAUGUUCCCAAAGAUUGGUCUAGCAAAGCUGGACCCUCCCAGGUAGGUCGCUCUCCUAUCU [KL-XARG-B16]
405
